target: T1, human HER3-Fc (R&D Systems, 348-RB) (human, UniProt P21860 20-643); experiment: HRG competition alphascreen
T1 construct: Bought; also called hHER3-Fc; Fc-HER3; Fc part of the bought chimera not given, not described
Form field: pIC50 (one value per entry).
Reminder that pIC50 means the negative base-10 logarithm of the concentration expressed in mol/L.

HER3MS00121 (VHH, 17B05 second round, E1D, S84P (final variant for N-terminal use); also called HER3MS0121) VHH: DVQLVESGGGLVQPGGSLRLSCAASGSIGGLNAMAWYRQAPGKERELVAGIFGVGSTRYADSVKGRFTISRDNSKNTVYLQMNSLRPEDTAVYYCRMSSVTRGSSDYWGQGTLVTVSS; 9.26
17B05 (VHH, also called HER3MS17B05; HER3MS017B05) VHH: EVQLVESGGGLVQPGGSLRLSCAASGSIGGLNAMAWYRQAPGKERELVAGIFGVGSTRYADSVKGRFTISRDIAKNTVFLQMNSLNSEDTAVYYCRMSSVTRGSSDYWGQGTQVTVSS; 9.11
HER3MS00118 (VHH, 17B05 second round, S84A; also called HER3MS0118) VHH: EVQLVESGGGLVQPGGSLRLSCAASGSIGGLNAMAWYRQAPGKERELVAGIFGVGSTRYADSVKGRFTISRDNSKNTVYLQMNSLRAEDTAVYYCRMSSVTRGSSDYWGQGTLVTVSS; 9.22
HER3MS00119 (VHH, 17B05 second round, S84P (final variant); also called HER3MS0119) VHH: EVQLVESGGGLVQPGGSLRLSCAASGSIGGLNAMAWYRQAPGKERELVAGIFGVGSTRYADSVKGRFTISRDNSKNTVYLQMNSLRPEDTAVYYCRMSSVTRGSSDYWGQGTLVTVSS; 9.10

(Q) I am curious: what pIC50 value has been reported for HER3MS00120 (VHH, 17B05 second round, E1D, S84A; also called HER3MS0120) VHH: DVQLVESGGGLVQPGGSLRLSCAASGSIGGLNAMAWYRQAPGKERELVAGIFGVGSTRYADSVKGRFTISRDNSKNTVYLQMNSLRAEDTAVYYCRMSSVTRGSSDYWGQGTLVTVSS ?
(A) 9.12
